Assay: activity coefficient (dimensionless); of the first substance listed, at infinite dilution; xn = mol fraction of the nth substance listed
Conditions: 308.15 K; 101 kPa; Liquid; Chromatography; x1 = 0
Use 6 as the dividing line for activity coefficient, with the line itself on the yes (1) side and lower values as no (0).

The following compounds have reported results that may help.
>>> category_label("CCCCCC [hexane] + CCCC[n+]1ccc(C)cc1.O=S(=O)([N-]S(=O)(=O)C(F)(F)F)C(F)(F)F")
"yes (1)"
>>> category_label("CCO [ethanol] + CCCC[n+]1ccc(C)cc1.O=S(=O)([N-]S(=O)(=O)C(F)(F)F)C(F)(F)F")
"no (0)"
>>> category_label("CCCOCCC [dipropyl ether] + CCCC[n+]1ccc(C)cc1.O=S(=O)([N-]S(=O)(=O)C(F)(F)F)C(F)(F)F")
"no (0)"
>>> category_label("C#CCCCC [1-hexyne] + CCCC[n+]1ccc(C)cc1.O=S(=O)([N-]S(=O)(=O)C(F)(F)F)C(F)(F)F")
"no (0)"
>>> category_label("CCCCC [pentane] + CCCC[n+]1ccc(C)cc1.O=S(=O)([N-]S(=O)(=O)C(F)(F)F)C(F)(F)F")
"yes (1)"

Alright, here's another compound for you.
Exercise: Decide: activity coefficient of O [water] + CCCC[n+]1ccc(C)cc1.O=S(=O)([N-]S(=O)(=O)C(F)(F)F)C(F)(F)F >= 6?
Key: no (0)

----------
# activity coefficient per entry
Assay: activity coefficient (dimensionless); of the first substance listed, at infinite dilution; xn = mol fraction of the nth substance listed
Conditions: 368.15 K; 101 kPa; Liquid; Chromatography; x1 = 0
Output spec: single numeric token, no unit.

The examples below pair each entry with its known result.
>>> measured("CO [methanol] + CCCC[n+]1ccc(C)cc1.O=S(=O)([N-]S(=O)(=O)C(F)(F)F)C(F)(F)F")
0.876
>>> measured("C1CCCCCCC1 [cyclooctane] + CCCC[n+]1ccc(C)cc1.O=S(=O)([N-]S(=O)(=O)C(F)(F)F)C(F)(F)F")
8.74

Here is another compound to look at.
Exercise: Fill in the blank: the reported activity coefficient of Cc1ccccc1C [1,2-dimethylbenzene] + CCCC[n+]1ccc(C)cc1.O=S(=O)([N-]S(=O)(=O)C(F)(F)F)C(F)(F)F is ____.
Key: 1.35

----------
# activity coefficient per entry
Assay: activity coefficient (dimensionless); of the first substance listed, at infinite dilution; xn = mol fraction of the nth substance listed
Details: 298.15 K; 101 kPa; Liquid; Chromatography; x1 = 0
Output spec: single numeric token, no unit.

>>> measured("CCCCCCC [heptane] + CCCC[n+]1ccc(C)cc1.O=S(=O)([N-]S(=O)(=O)C(F)(F)F)C(F)(F)F")
20.4
>>> measured("CCCCCCCC [octane] + CCCC[n+]1ccc(C)cc1.O=S(=O)([N-]S(=O)(=O)C(F)(F)F)C(F)(F)F")
27.9

Exercise: Fill in the blank: the reported activity coefficient of C1CCCCC1 [cyclohexane] + CCCC[n+]1ccc(C)cc1.O=S(=O)([N-]S(=O)(=O)C(F)(F)F)C(F)(F)F is ____.
Key: 8.93

Exercise: Fill in the blank: the reported activity coefficient of CO [methanol] + CCCC[n+]1ccc(C)cc1.O=S(=O)([N-]S(=O)(=O)C(F)(F)F)C(F)(F)F is ____.
Key: 1.53

Exercise: Fill in the blank: the reported activity coefficient of C1CCCCCCC1 [cyclooctane] + CCCC[n+]1ccc(C)cc1.O=S(=O)([N-]S(=O)(=O)C(F)(F)F)C(F)(F)F is ____.
Key: 13.9

----------
Assay: activity coefficient (dimensionless); of the first substance listed, at infinite dilution; xn = mol fraction of the nth substance listed
Settings: 338.15 K; 101 kPa; Liquid; Chromatography; x1 = 0
# activity coefficient per entry

The examples below pair each entry with its known result.
>>> measured("Cc1ccccc1 [toluene] + CCCC[n+]1ccc(C)cc1.O=S(=O)([N-]S(=O)(=O)C(F)(F)F)C(F)(F)F")
1.02
>>> measured("Cc1ccccc1C [1,2-dimethylbenzene] + CCCC[n+]1ccc(C)cc1.O=S(=O)([N-]S(=O)(=O)C(F)(F)F)C(F)(F)F")
1.27
>>> measured("C=CCCCCCC [oct-1-ene] + CCCC[n+]1ccc(C)cc1.O=S(=O)([N-]S(=O)(=O)C(F)(F)F)C(F)(F)F")
11.3
>>> measured("C#CCCCCCC [1-octyne] + CCCC[n+]1ccc(C)cc1.O=S(=O)([N-]S(=O)(=O)C(F)(F)F)C(F)(F)F")
4.37
>>> measured("CCCCCCCCC [nonane] + CCCC[n+]1ccc(C)cc1.O=S(=O)([N-]S(=O)(=O)C(F)(F)F)C(F)(F)F")
27.6
>>> measured("CCCCCC [hexane] + CCCC[n+]1ccc(C)cc1.O=S(=O)([N-]S(=O)(=O)C(F)(F)F)C(F)(F)F")
12
>>> measured("COC(C)(C)C [2-methoxy-2-methylpropane] + CCCC[n+]1ccc(C)cc1.O=S(=O)([N-]S(=O)(=O)C(F)(F)F)C(F)(F)F")
2.08
>>> measured("C=CCCCCC [1-heptene] + CCCC[n+]1ccc(C)cc1.O=S(=O)([N-]S(=O)(=O)C(F)(F)F)C(F)(F)F")
8.51
>>> measured("CCCCCCCCCC [decane] + CCCC[n+]1ccc(C)cc1.O=S(=O)([N-]S(=O)(=O)C(F)(F)F)C(F)(F)F")
37.6
>>> measured("CCc1ccccc1 [ethylbenzene] + CCCC[n+]1ccc(C)cc1.O=S(=O)([N-]S(=O)(=O)C(F)(F)F)C(F)(F)F")
1.5

Exercise: Fill in the blank: the reported activity coefficient of C#CCCCC [1-hexyne] + CCCC[n+]1ccc(C)cc1.O=S(=O)([N-]S(=O)(=O)C(F)(F)F)C(F)(F)F is ____.
Key: 2.46

Exercise: Fill in the blank: the reported activity coefficient of CC(C)=O [acetone] + CCCC[n+]1ccc(C)cc1.O=S(=O)([N-]S(=O)(=O)C(F)(F)F)C(F)(F)F is ____.
Key: 0.43

Exercise: Fill in the blank: the reported activity coefficient of C1CCCCC1 [cyclohexane] + CCCC[n+]1ccc(C)cc1.O=S(=O)([N-]S(=O)(=O)C(F)(F)F)C(F)(F)F is ____.
Key: 6.96

Exercise: Fill in the blank: the reported activity coefficient of O [water] + CCCC[n+]1ccc(C)cc1.O=S(=O)([N-]S(=O)(=O)C(F)(F)F)C(F)(F)F is ____.
Key: 2.85

Exercise: Fill in the blank: the reported activity coefficient of C1CCCCCC1 [cycloheptane] + CCCC[n+]1ccc(C)cc1.O=S(=O)([N-]S(=O)(=O)C(F)(F)F)C(F)(F)F is ____.
Key: 8.39

Exercise: Fill in the blank: the reported activity coefficient of CCCOCCC [dipropyl ether] + CCCC[n+]1ccc(C)cc1.O=S(=O)([N-]S(=O)(=O)C(F)(F)F)C(F)(F)F is ____.
Key: 4.54

Exercise: Fill in the blank: the reported activity coefficient of C1CCCC1 [cyclopentane] + CCCC[n+]1ccc(C)cc1.O=S(=O)([N-]S(=O)(=O)C(F)(F)F)C(F)(F)F is ____.
Key: 5.28

Exercise: Fill in the blank: the reported activity coefficient of C=CCCC [1-pentene] + CCCC[n+]1ccc(C)cc1.O=S(=O)([N-]S(=O)(=O)C(F)(F)F)C(F)(F)F is ____.
Key: 5.07

Exercise: Fill in the blank: the reported activity coefficient of CCCCCCC [heptane] + CCCC[n+]1ccc(C)cc1.O=S(=O)([N-]S(=O)(=O)C(F)(F)F)C(F)(F)F is ____.
Key: 15.6

Exercise: Fill in the blank: the reported activity coefficient of c1ccsc1 [thiophene] + CCCC[n+]1ccc(C)cc1.O=S(=O)([N-]S(=O)(=O)C(F)(F)F)C(F)(F)F is ____.
Key: 0.661

----------
Assay: activity coefficient (dimensionless); of the first substance listed, at infinite dilution; xn = mol fraction of the nth substance listed
Conditions: 308.15 K; 101 kPa; Liquid; Chromatography; x1 = 0
metric-name: activity coefficient

Exercise: Fill in the blank: the reported activity coefficient of C1CCOC1 [tetrahydrofuran] + CCCC[n+]1ccc(C)cc1.O=S(=O)([N-]S(=O)(=O)C(F)(F)F)C(F)(F)F is ____.
Key: 0.63

Exercise: Fill in the blank: the reported activity coefficient of C=CCCCCC [1-heptene] + CCCC[n+]1ccc(C)cc1.O=S(=O)([N-]S(=O)(=O)C(F)(F)F)C(F)(F)F is ____.
Key: 9.56

Exercise: Fill in the blank: the reported activity coefficient of C#CCCCCC [1-heptyne] + CCCC[n+]1ccc(C)cc1.O=S(=O)([N-]S(=O)(=O)C(F)(F)F)C(F)(F)F is ____.
Key: 3.23
